# assayed system: SIRT2 (Homo sapiens, UniProt Q8IXJ6)
# Sequence (Q8IXJ6 whole entry): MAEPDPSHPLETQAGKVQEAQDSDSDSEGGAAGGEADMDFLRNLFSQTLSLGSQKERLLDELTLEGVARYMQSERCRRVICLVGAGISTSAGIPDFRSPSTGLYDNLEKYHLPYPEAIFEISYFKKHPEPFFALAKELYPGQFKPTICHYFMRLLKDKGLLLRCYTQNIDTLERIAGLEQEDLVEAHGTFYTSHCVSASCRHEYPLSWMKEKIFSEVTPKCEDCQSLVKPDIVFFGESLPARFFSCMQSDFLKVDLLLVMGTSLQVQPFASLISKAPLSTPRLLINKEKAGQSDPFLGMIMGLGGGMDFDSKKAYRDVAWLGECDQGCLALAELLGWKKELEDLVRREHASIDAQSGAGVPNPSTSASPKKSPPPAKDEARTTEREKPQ
# method summary: SIRT2 deacetylase activity, recombinant SIRT2 with acetylated peptide H3K9Ac and NAD+
Kindly state IC50 for each of the entries shown.
Your answer should be a plain number; it is taken to be in µM.

Reported IC50 for CC(=O)c1cccc(NC(=O)Nc2nc(-c3ccc(Br)cc3)c(C)s2)c1 was 37

Reported IC50 for CCOC(=O)c1sc(NC(=O)Nc2cccc(OC)c2)nc1-c1ccc(Br)cc1 was 9

Reported IC50 for CSc1cccc(NC(=O)Nc2nc(-c3ccc(Br)cc3)c(C)s2)c1 was 26

Reported IC50 for Cc1sc(NC(=O)NCc2ccccc2)nc1-c1ccc(Br)cc1 was 108
